Each recorded value in this set is attributed to patent US20160039895A1.

- subject.of.test: T1, αvβ5 integrin on transfected K562 cells (UniProt P06756 31-1048; P18084 24-799, limits assumed)
- T1 construct: whole, on cells
- method.description: flow cytometry on K562 cells transfected with αvβ5
endpoint.name: binding result

# binder, endpoint.name, reported.value
rows = [
    ("scVEGF-mA (designed binder, Soluble protein from P. pastoris with C-terminal hexahistidine tag, with or without N-terminal FLAG tag (tags not included in the parts); also called scVEGFmut-A) EVAKAMDVYQKSYCHPIETLVDILQEYPDEIGYIFKPSCVPLMRCGGCCNDAGLECVPTEESNITMQIMRIKPYQGQHIGEMSFLQHNKCECRPKKDGSTSGSGKSSEGKGEVVKFMDVYQRSYCHPIETLVDIFQEYPDKIEYAFKPSCVPLMRCGGCCNNEGLECVPTEESNITMQITRAKPHQGQHIGEMSFLQHNKCECRPKKD", "binding result", "no binding"),
    ("scVEGFrgd-7I (designed binder, Soluble protein from P. pastoris with C-terminal hexahistidine tag, with or without N-terminal FLAG tag; also called scVEGF-7I) EVVKAMDVYQRSYCHPIETLVDIFQEYPDEIEYIFKPSCVPLMRCGGCCNDAGLECVPTEESNITMQIMRIKPHQGQHIGEMSFLQHNKCECRPKKDGSTSGSGKSSEGKGEVVKFMDVYQRSYCHPIETLVDIFQEYPDEIEYAFKPSCVPLMRCGGCCNDEGLECVPTEESNITMQIMRPSVRRGDSPASHIGEMSFLQHNKCECRPKKDTR", "binding result", "no binding"),
]
